- Tested on: Wolbachia pipientis
- PROCEDURE_SUMMARY: Anti-Wolbachia Cell-Based Screen
- Assay type: functional
- Parameters: scale not given: in the data most compounds retested in dose-response had high values
- STUDY_CONDITIONS: 5 µM
Screen size: about 48,000 compounds; about 13,000 (27%) showed an effect of 50% or more. The list shows a part of the results.
Threshold check on Percent Effect: strictly below 70% is t; on or above 70% is f.

1) CCc1cc(CN(C)Cc2nc(-c3ccc(OC)cc3F)oc2C)on1; t
2) CS(=O)(=O)C1CCN(S(=O)(=O)c2ccc(F)c(F)c2)CC1; f
3) Cc1ccc(S(=O)(=O)N2CCC(S(C)(=O)=O)CC2)cc1C; f
4) Cc1cc(-c2nn3c(C4CC4)nnc3s2)on1; f
5) CS(=O)(=O)C1CCN(S(=O)(=O)c2ccc(F)c(F)c2)C1 (centres undefined); f
6) CN(CC(=O)N1CCCC1c1cnn(C)c1)c1ccc(Cl)cn1 (centres undefined); t
7) Cc1cc(CN(C2CC2)C(C)C(C)C)on1 (centres undefined); t
8) COc1ccc(S(=O)(=O)N2CCn3nc(C)nc3C2)cc1C; t
9) Cc1noc(C)c1CNCC1CCN(CC(O)c2ccccc2)CC1 (centres undefined); t
10) CCN(C)c1ncnc2c1CCN(C(=O)[C@H]1CCCO1)CC2; t
11) Cc1ccc(C(=O)N2CCC3(CCC(=O)N(CCN(C)C)C3)CC2)nc1; t
12) Cc1cc(S(=O)(=O)N2CCC(S(C)(=O)=O)C2)ccc1F (centres undefined); f
13) CNc1cc(C2CCCN2Cc2ccccc2C(=O)O)ccn1 (centres undefined); t
14) COc1c(C(=O)N2CCC(CSc3ccccc3)C2)c(C)nn1C (centres undefined); t
15) Cc1c(CCC(=O)N2CCCC2c2ccnc(N(C)C)c2)cnn1C (centres undefined); f
16) O=C(C1CCCCO1)N1CCc2ncnc(NCCO)c2CC1 (centres undefined); t
17) CCn1cc(-c2nn3c(C(C)C)nnc3s2)c(C)n1; f
18) O=C(c1ccnnc1)N1CCc2ncnc(C3CCOC3)c2CC1 (centres undefined); t
19) COc1c(C2CCCN2Cc2cc(C)no2)c(C)nn1C (centres undefined); t
20) COCCN1C(=O)CCC12CCN(c1ncc(F)cn1)CC2.O=C(O)C(F)(F)F; t
21) CC(C)c1nnc2sc(CC3CCS(=O)(=O)C3)nn12 (centres undefined); t
22) CCC[C@@H]1CN(S(=O)(=O)c2ccc(C)c(F)c2)C[C@H]1N(C)C; t
23) CCn1c(CN2CCCC2)nnc1C1CCN(Cc2cc(C)no2)CC1; t
24) CNc1cc(C2CCCN2C(=O)CCc2ccccc2F)ccn1 (centres undefined); f

====

- System: Wolbachia pipientis
- PROCEDURE_SUMMARY: Anti-Wolbachia Cell-Based Screen
- Type: functional
- Design: scale not given: in the data most compounds retested in dose-response had high values
- STUDY_CONDITIONS: 5 µM
Hit rate of the full screen: of about 48,000 compounds, about 13,000 (27%) showed an effect of 50% or more. This is one part of the list.
METRIC_NAME: Percent Effect (%)

1. Cc1cc(CC(=O)NC2CCCN(c3ccccc3Cl)C2=O)n[nH]1 (stereo unspecified); 103.5
2. Cc1cc(CC(=O)NC2CCCN(c3ccccc3F)C2=O)n[nH]1 (stereo unspecified); 95.19
3. CC(=O)NCCCSC1CCCN(c2ccccc2F)C1=O (stereo unspecified); -23.33
4. O=C(Cc1ccccc1O)NC1CCCN(c2ccccc2F)C1=O (stereo unspecified); 90.3
5. Cc1ccc(N2CCCC(NC(=O)Cc3csc(C)n3)C2=O)cc1 (stereo unspecified); -8.265
6. CNc1nc(N2C[C@H](NC(=O)CCOC)[C@@H](C3CC3)C2)nc2c1CCC2; -18.85
7. Cc1cc(C2CCCN(C(=O)COc3ccccc3F)C2)n[nH]1 (stereo unspecified); -9.054
8. CS(=O)(=O)c1cncnc1C1CCCNC1.Cl (stereo unspecified); 112
9. CCc1nc(-c2cncnc2C2CCCNC2)no1.Cl (stereo unspecified); 115.3
10. Cc1cc(CC(=O)NC2CCCN(Cc3ccccc3)C2=O)n[nH]1 (stereo unspecified); 128.5
11. CNc1nc(C2CCCCN2C(=O)C(C)(C)OC)nc2c1CN(C)CC2 (stereo unspecified); 100.3
